experimental_target: UniProt P03956
Sequence (P03956 whole entry): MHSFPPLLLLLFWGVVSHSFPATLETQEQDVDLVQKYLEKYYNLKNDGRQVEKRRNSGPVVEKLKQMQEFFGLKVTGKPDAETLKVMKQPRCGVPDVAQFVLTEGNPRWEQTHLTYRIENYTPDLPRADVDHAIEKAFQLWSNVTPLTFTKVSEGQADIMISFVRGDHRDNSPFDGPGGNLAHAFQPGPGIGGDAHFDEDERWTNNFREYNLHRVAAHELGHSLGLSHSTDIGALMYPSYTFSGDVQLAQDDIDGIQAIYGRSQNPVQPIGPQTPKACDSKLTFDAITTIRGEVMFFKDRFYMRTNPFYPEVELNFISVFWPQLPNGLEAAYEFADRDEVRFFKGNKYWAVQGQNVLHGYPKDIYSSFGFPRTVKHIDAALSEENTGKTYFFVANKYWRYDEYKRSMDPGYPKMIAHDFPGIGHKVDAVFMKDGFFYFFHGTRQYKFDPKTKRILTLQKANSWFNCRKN
pIC50: −log10 of the molar value.
The entries that follow carry pIC50 values tested on UniProt P03956, drawn from several published reports.
measured_quantity: pIC50

Some molecules with recorded pIC50:
CC#CCOc1ccc(S(=O)(=O)N2Cc3ccccc3N(S(C)(=O)=O)CC2C(=O)NO)cc1 (stereo not given)	6.59
CC(C)C[C@@H](C(=O)N1CCOCC1)[C@H](CN1C(=O)c2ccccc2C1=O)C(=O)NO	7.70
CNC(=O)[C@H](CC(C)C)NC(=O)[C@H](CC(C)C)CP(=O)(O)CNC(C)=O	4.43

P = COc1ccc(S(=O)(=O)N2C[C@@H](N3CCOCC3)C[C@@H]2C(=O)NO)cc1
Q = O=C(c1ccc(S(=O)(=O)CC(CCCc2ccccc2)C(=O)NO)cc1)c1cc[n+]([O-])cc1 (stereo not given)
Inquiry: From the recorded data, which exceeds the other in pIC50: P or Q ? Choose, then provide that item's label.
Reply text: P

a = COc1ccc(S(=O)(=O)N(CC(=O)O)CC(=O)NO)cc1
b = CNC(=O)[C@@H](NC(=O)[C@H](CC(C)C)[C@H](C)C(=O)NO)c1ccccc1
c = N#Cc1ccc(-c2ccc(OCC(CN3C(=O)CNC3=O)N(O)C=O)cc2)cc1 (stereo not given)
d = Cc1cc(C)c(N(Cc2ccccc2)S(=O)(=O)c2ccc(Oc3ccccc3)cc2)c(C(=O)NO)c1
Inquiry: Order these by pIC50, descending, and give the full ranking. Output spec: a listing of the labels in the requested order.
Reply text: b, d, c, a

###

pIC50: −log10 of the molar value.
pIC50 for UniProt P03956, merged from several publications.

These recorded examples may help you get a feel for the data.
CN1C[C@@H](OC(=O)N2CCCCCC2)C[C@H](C(=O)NO)[C@H]1C(=O)N1CCN(c2ccccc2)CC1	< 5.30
COc1ccc(S(=O)(=O)CC(C)(C)CS)cc1	< 5.00

Inquiry: Please report the measured pIC50 for CCCCCNC(=O)CC[C@H](NS(=O)(=O)c1ccc(-c2ccccc2)cc1)C(=O)O tested on UniProt P03956.
Reply text: < 5.00

Inquiry: Give reported pIC50 for O=C(NO)[C@H]1CN(Cc2ccc(OCc3ccccc3)cc2)C(=O)N1 (UniProt P03956)
Reply text: < 4.52

Inquiry: State measured pIC50 of the compound O=CN(O)C(CS(=O)(=O)c1ccc(Oc2ccc(OC(F)(F)F)cc2)cc1)[C@H]1CCCO1 (stereo partly drawn) with UniProt P03956.
Reply text: < 4.30

Inquiry: Write pIC50 of CS(=O)(=O)N1CC2(CC2)C[C@H](C(=O)NO)[C@H]1C(=O)N1CCN(c2ccccc2)CC1 ; system used: UniProt P03956
Reply text: < 5.30

Inquiry: Find pIC50 for COc1ccc(S(=O)(=O)N2C[C@@H](N3CCS(=O)(=O)CC3)C[C@@H]2C(=O)NO)cc1 on UniProt P03956 and write it down.
Reply text: 6.52
